Value source: patent US20130251724A1

- SYSTEM UNDER TEST: T1, Cynomolgus OSM (cynomolgus, UniProt A0A2K5VPC6 26-221)
- T1 construct: also called Cyno OSM; cynomolgus macaque OSM
- T1 sequence: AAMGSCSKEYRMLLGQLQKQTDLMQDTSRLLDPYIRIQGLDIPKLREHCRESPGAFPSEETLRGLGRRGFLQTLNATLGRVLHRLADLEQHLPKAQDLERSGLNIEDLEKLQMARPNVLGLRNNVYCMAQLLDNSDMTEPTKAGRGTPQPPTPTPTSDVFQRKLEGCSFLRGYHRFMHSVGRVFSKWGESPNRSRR
- EXPERIMENT SUMMARY: BIAcore kinetics, purified antibody
REPORTED METRIC: koff (s⁻¹)
Express it in s⁻¹; write the number only.

BINDER	OUTPUT UNIT	koff
15E10h, non-competitive anti-OSM humanised antibody (antibody, human IgG1, kappa, V domains shown, also called Humanised 15E10; humanised 15E10) VH: QVQLVESGGGVVQPGRSLRLSCAASGFSLTNYGVHWVRQAPGKGLEWVAVIWRGGSTDYNAAFMSRFTISKDNSKNTLYLQMNSLRAEDTAVYYCAKSPNSNFYWYFDVWGRGTLVTVSS VL: EIVLTQSPATLSLSPGERATLSCSGSSSVSYMYWYQQKPGQAPRLLIEDTSNLASGIPARFSGSGSGTDYTLTISNLEPEDFAVYYCQQWSSYPPTFGQGTKLEIKR	s⁻¹	0.000324
Humanised 10G8 H0L1 (antibody, human IgG1, kappa, V domains shown, IgG1 kappa; mature H0 heavy chain and mature L1 light chain; also called Humanised 10G8 H0L1 parent) VH: EVQLVESGGGLVQPGGSLRLSCAASGFTFSNYAMSWVRQAPGKGLEWVATISDGGSFTYYLDNVRGRFTISRDNAKNSLYLQMNSLRAEDTAVYYCARDVGHTTFWYFDVWGRGTLVTVSS VL: DIVMTQSPDSLAVSLGERATINCRASKSVSAAGYNFMHWYQQKPGQPPKVLIYYASNLESGVPDRFSGSGSGTDFTLTISSLQAEDVAVYYCLHSREFPFTFGGGTKVEIKR	s⁻¹	8.31e-05
Humanised 10G8 H0(IGHV3-23)L1 (antibody, human IgG1, kappa, V domains shown, IgG1 kappa; also called H0(huCDRH1)L1; H0 (CDRH1 IGHV3_23) L1) VH: EVQLVESGGGLVQPGGSLRLSCAASGFTFSSYAMSWVRQAPGKGLEWVATISDGGSFTYYLDNVRGRFTISRDNAKNSLYLQMNSLRAEDTAVYYCARDVGHTTFWYFDVWGRGTLVTVSS VL: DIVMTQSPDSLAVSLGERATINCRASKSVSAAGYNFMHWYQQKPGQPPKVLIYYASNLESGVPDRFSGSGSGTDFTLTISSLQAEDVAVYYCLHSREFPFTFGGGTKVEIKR	s⁻¹	8.39e-05

Query string: Given 10G8 chimaera (antibody, human IgG1, kappa, V domains shown, Mouse V regions on human gamma 1 wild type and human kappa constant regions; the entries called VH/VL domain (chimera) are full chains; also called 10G8 chimera; 10G8 Chimæra) VH: EMQLVESGEGLVEPGGSLKLSCAASGFTFSNYAMSWVRQTPEKSLEWVATISDGGSFTYYLDNVRGRFTISRDNAKNNLYLQMSHLKSDDTAMYYCARDVGHTTFWYFDVWGSGTLVTVSS VL: DIVLTQSPVFLVVSLGQRATISCRASKSVSAAGYNFMHWYQQKPGQPPKVLIKYASNLESGVPARFSGSGSGTDFTLNIHPVEEEDAVTYYCLHSREFPFTFGGGTNLEIKR , state its recorded koff.
Result string: 6.63e-05
